# Test system: MDA-MB-468 breast
# experiment: NCI-60 one-dose screen, 48 h (100 = growth as untreated, 0 = no growth, -100 = all killed)
# condition: 10 µM unless noted
# Method: Growth inhibition of the MDA-MB-468 human Breast tumor cell line is measured as a screen for anti-cancer activity. Cells are grown in 96 well plates and exposed to the test compound for 48 hours. Compounds are tested at a single concentration, which is 10^-5 M for most compounds. The reported endpoint is percent growth (GI% or GIPRCNT), where numbers from 0 - 100% represent growth inhibition, and numbers from -100% - 0 represent cell death. […]
This is part of a sample that, as a whole, favours compounds with a hit. Of some 83,000 tested, about 20% had one in any assay.
growth by entry:
endpoint-label: growth (%)

                                   compound  meas_value
0  CN(C)C(C(N)=O)c1ccc(Cl)cc1 (stereo not drawn)        99.2
1   Clc1ccc(Nc2nnc(COc3ccccc3)c3ccccc23)cc1       -16.9
2         c1ccc(Nc2ncc3c(n2)-c2cccn2CC3)cc1        4.29
3  c1ccc2c(-c3nc(-c4c[nH]c5ccncc45)cs3)c[nH]c2c1       -9.84
4            CCCCCCCCCCCCCCCCCC(=O)OCCCCCCC         114
5        COc1ccc(CN2c3ccccc3Sc3ccccc32)cc1O        9.33
6  COc1ccc2c(c1)N(CCO)C1=C(C(=O)OC1)C2c1cc(OC)c(OC)c(OC)c1 (stereo not drawn)        3.62
7  C=C[C@@H]1CCC/C=C/[C@@H]2C[C@H](O)C[C@H]2[C@H](O)/C=C/C(=O)O1       -46.6
